test: in vitro; conditions: human, hepatocytes
measuredQuantity: hepatocyte CLint (µL/min/1e6 cells)
# value in µL/min/1e6 cells; strip the unit string

Please report the measured hepatocyte CLint for Cc1c(C(=O)NN2CCCCC2)nn(-c2ccc(Cl)cc2Cl)c1-c1ccc(Cl)cc1 [SR141716A]
5.7

Please report the measured hepatocyte CLint for CCCCCCC(C)(C)c1cc(OC)c([C@@H]2C=C(CO)[C@@H]3C[C@H]2C3(C)C)c(OC)c1 [HU308]
8.3

====

molecular target: UniProtKB P47936; experiment: Operational analysis of biased signalling
Sequence (P47936 whole entry): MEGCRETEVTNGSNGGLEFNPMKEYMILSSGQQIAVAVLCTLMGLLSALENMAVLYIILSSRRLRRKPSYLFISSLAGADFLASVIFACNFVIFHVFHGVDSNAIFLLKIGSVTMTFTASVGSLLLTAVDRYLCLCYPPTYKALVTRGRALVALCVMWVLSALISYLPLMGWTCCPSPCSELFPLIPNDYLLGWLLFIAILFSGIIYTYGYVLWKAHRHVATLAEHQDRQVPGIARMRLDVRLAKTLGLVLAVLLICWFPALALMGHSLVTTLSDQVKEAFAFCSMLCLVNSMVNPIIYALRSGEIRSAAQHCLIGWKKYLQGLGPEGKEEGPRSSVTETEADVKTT
Please respond with reported β-AR-GTPγS ΔΔlogR for every item in the list.
# answer = number (no unit)

Please report the measured β-AR-GTPγS ΔΔlogR for CCCC(C)(C)c1ccc2c(c1)OC(C)(C)[C@@H]1CC=C(C)C[C@@H]21
-0.67

Please report the measured β-AR-GTPγS ΔΔlogR for CCCCCCC(C)(C)c1ccc([C@@H]2C[C@H](O)CC[C@H]2CCCO)c(O)c1
0

Please report the measured β-AR-GTPγS ΔΔlogR for CCCCCCC(C)(C)c1cc(OC)c([C@@H]2C=C(CO)[C@@H]3C[C@H]2C3(C)C)c(OC)c1
-0.72

Please report the measured β-AR-GTPγS ΔΔlogR for CCCCCCC(C)(C)c1cc(OC)c(C2=C[C@H]3CC[C@]2(CO)C3(C)C)c(OC)c1
-0.75

====

Please respond with reported GPR55 pEC50 (± SEM) for every item in the list.
target: hGPR55 (Homo sapiens, UniProt Q9Y2T6); construct: host or cells: CHO-K1 (PathHunter hGPR55_bgal); test: cell-based; conditions: β-arrestin recruitment
Sequence (Q9Y2T6 whole entry): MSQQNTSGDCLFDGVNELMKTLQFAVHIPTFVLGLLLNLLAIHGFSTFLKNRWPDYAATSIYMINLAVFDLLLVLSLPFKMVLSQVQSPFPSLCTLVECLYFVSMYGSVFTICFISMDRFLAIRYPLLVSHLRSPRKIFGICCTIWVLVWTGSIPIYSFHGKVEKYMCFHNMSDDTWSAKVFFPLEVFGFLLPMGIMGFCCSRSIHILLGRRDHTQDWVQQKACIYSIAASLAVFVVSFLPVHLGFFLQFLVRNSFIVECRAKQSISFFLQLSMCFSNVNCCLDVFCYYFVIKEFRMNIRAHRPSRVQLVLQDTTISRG

Please report the measured GPR55 pEC50 (± SEM) for Cc1ccc2c(c1)Cc1c(C(=O)NN3CCCCC3)nn(-c3ccc(Cl)cc3Cl)c1-2
< 5

Please report the measured GPR55 pEC50 (± SEM) for CCCn1c(C)c(C(=O)c2cccc3ccccc23)c2ccccc21
< 5

Please report the measured GPR55 pEC50 (± SEM) for COc1ccc(C(=O)c2c(C)n(CCN3CCOCC3)c3cc(I)ccc23)cc1
< 5

Please report the measured GPR55 pEC50 (± SEM) for CCCCCCC(C)(C)c1cc(OC)c(C2=C[C@H]3CC[C@]2(CO)C3(C)C)c(OC)c1
< 5

Please report the measured GPR55 pEC50 (± SEM) for CCCC(C)(C)c1ccc2c(c1)OC(C)(C)[C@@H]1CC=C(C)C[C@@H]21
< 5

Please report the measured GPR55 pEC50 (± SEM) for Cc1c(C(=O)c2cccc3ccccc23)c2cccc3c2n1[C@H](CN1CCOCC1)CO3
< 5

====

molecular target: hCB2R (Homo sapiens); assay: biochemical; type: biochemical; design: expressed in transfected cells; host or cells: Flp-In-293 (Invitrogen #R750-07), pcDNA5/FRT
measuredQuantity: Emax ± SEM GTPγS hCB2R

Please report the measured Emax ± SEM GTPγS hCB2R for CCCC(C)(C)c1ccc2c(c1)OC(C)(C)[C@@H]1CC=C(C)C[C@@H]21 [JWH133]
61 ± 15

Please report the measured Emax ± SEM GTPγS hCB2R for CN1CCCC[C@H]1Cn1cc(C(=O)c2cc([N+](=O)[O-])ccc2I)c2ccccc21 [(S)-AM1241]
47 ± 5

Please report the measured Emax ± SEM GTPγS hCB2R for Cc1c(C(=O)NN2CCCCC2)nn(-c2ccc(Cl)cc2Cl)c1-c1ccc(I)cc1 [AM251]
-29 ± 2

Please report the measured Emax ± SEM GTPγS hCB2R for CN1CCCCC1Cn1cc(C(=O)c2cc([N+](=O)[O-])ccc2I)c2ccccc21 (racemic) [(rac)-AM1241]
56 ± 9

Please report the measured Emax ± SEM GTPγS hCB2R for CN1CCCC[C@@H]1Cn1cc(C(=O)c2cc([N+](=O)[O-])ccc2I)c2ccccc21 [(R)-AM1241]
33 ± 2

Please report the measured Emax ± SEM GTPγS hCB2R for COc1ccc(C(=O)c2c(C)n(CCN3CCOCC3)c3cc(I)ccc23)cc1 [AM630]
-22 ± 2

====

target: hCB2R (Homo sapiens, UniProt P34972); design: expressed in transfected cells; host or cells: Flp-In-293 (Invitrogen #R750-07), pcDNA5/FRT; conditions: hCB2R
Sequence (P34972 whole entry): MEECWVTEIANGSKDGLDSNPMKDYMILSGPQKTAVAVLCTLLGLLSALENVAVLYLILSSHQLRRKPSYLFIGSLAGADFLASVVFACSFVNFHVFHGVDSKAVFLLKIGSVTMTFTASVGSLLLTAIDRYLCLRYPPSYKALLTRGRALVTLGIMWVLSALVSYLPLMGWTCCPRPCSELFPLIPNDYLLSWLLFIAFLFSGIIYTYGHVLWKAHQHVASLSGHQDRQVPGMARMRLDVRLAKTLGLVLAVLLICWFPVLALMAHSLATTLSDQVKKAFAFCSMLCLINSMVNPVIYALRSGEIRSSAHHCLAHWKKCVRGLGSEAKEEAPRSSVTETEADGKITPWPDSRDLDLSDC
measuredQuantity: GTPγS-cAMP ΔΔlogR

Look up hCB2R (Homo sapiens, UniProt P34972) data: GTPγS-cAMP ΔΔlogR of CCCCC/C=C\C/C=C\C/C=C\C/C=C\CCCC(=O)OC(CO)CO , then report it.
0.06 ± 0.46

Look up hCB2R (Homo sapiens, UniProt P34972) data: GTPγS-cAMP ΔΔlogR of CCCCC/C=C\C/C=C\C/C=C\C/C=C\CCCC(=O)NCCO [Anandamide, N-arachidonoylethanolamine] , then report it.
1.01 ± 0.41

Look up hCB2R (Homo sapiens, UniProt P34972) data: GTPγS-cAMP ΔΔlogR of CCCCCCC(C)(C)c1cc(OC)c(C2=C[C@H]3CC[C@]2(CO)C3(C)C)c(OC)c1 , then report it.
0.89 ± 0.31

Look up hCB2R (Homo sapiens, UniProt P34972) data: GTPγS-cAMP ΔΔlogR of CCCCCCC(C)(C)c1cc(OC)c([C@@H]2C=C(CO)[C@@H]3C[C@H]2C3(C)C)c(OC)c1 , then report it.
0.89 ± 0.30

====

Please respond with reported pERK-cAMP bias factor (BF) for every item in the list.
molecular target: hCB2R (Homo sapiens); set-up: expressed in transfected cells; host or cells: Flp-In-293 (Invitrogen #R750-07), pcDNA5/FRT; settings: hCB2R
# answer = number (no unit)

Please report the measured pERK-cAMP bias factor (BF) for CCCCCCC(C)(C)c1cc(OC)c(C2=C[C@H]3CC[C@]2(CO)C3(C)C)c(OC)c1 [HU910]
1.77

Please report the measured pERK-cAMP bias factor (BF) for CCCCC/C=C\C/C=C\C/C=C\C/C=C\CCCC(=O)NCCO [Anandamide, N-arachidonoylethanolamine]
56.36

Please report the measured pERK-cAMP bias factor (BF) for CCCCC/C=C\C/C=C\C/C=C\C/C=C\CCCC(=O)OC(CO)CO [2-AG, 2-arachidonoyl glycerol]
11.19

Please report the measured pERK-cAMP bias factor (BF) for CCCCCCC(C)(C)c1cc(OC)c([C@@H]2C=C(CO)[C@@H]3C[C@H]2C3(C)C)c(OC)c1 [HU308]
5.42

====

target: Rat recombinant TRPM8 (Rattus norvegicus, UniProt Q8R455); construct: expressed in transfected cells; host or cells: HEK293 (TRPM8-HEK-293, gift from Mario van der Stelt); assay: TRP channel [Ca2+]i assay; format: cell-based; conditions: vs icilin […]; read-out: TRPM8 IC50 for antagonism of icilin
Sequence (Q8R455 whole entry): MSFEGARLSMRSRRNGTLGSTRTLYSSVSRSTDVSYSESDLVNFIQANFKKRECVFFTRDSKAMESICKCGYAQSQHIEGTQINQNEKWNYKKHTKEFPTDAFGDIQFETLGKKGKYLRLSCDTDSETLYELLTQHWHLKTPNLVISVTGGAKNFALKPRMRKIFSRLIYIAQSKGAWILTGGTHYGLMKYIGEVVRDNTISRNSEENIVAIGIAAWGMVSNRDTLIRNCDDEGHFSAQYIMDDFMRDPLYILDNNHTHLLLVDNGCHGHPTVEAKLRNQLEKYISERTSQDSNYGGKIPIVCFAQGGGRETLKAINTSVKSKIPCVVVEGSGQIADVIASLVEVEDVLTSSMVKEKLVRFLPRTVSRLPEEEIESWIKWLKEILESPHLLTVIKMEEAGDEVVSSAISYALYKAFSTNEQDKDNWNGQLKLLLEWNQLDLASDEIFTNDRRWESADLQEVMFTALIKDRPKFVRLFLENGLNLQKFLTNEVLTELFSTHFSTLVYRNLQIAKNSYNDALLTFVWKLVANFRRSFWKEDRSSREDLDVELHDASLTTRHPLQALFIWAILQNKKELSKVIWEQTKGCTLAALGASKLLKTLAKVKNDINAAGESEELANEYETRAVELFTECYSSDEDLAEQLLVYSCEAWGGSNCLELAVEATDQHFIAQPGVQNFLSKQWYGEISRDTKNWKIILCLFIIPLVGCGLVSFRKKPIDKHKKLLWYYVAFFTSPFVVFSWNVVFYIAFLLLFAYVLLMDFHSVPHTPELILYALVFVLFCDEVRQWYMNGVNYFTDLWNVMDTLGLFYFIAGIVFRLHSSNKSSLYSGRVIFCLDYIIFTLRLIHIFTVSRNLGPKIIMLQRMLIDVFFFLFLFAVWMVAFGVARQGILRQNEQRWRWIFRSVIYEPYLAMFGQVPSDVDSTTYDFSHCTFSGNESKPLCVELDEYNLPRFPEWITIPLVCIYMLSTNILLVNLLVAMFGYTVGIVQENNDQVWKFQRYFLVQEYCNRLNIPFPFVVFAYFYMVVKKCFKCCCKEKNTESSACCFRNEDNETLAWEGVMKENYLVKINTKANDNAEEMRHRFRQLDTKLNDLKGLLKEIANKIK
measuredQuantity: IC50 (µM)
# value in µM; strip the unit string

Please report the measured IC50 for Cc1c(C(=O)c2cccc3ccccc23)c2cccc3c2n1[C@H](CN1CCOCC1)CO3
72.9

Please report the measured IC50 for CCCC(C)(C)c1ccc2c(c1)OC(C)(C)[C@@H]1CC=C(C)C[C@@H]21
48.4

Please report the measured IC50 for COc1ccc(C(=O)c2c(C)n(CCN3CCOCC3)c3cc(I)ccc23)cc1
4.3

====

target: hCB2R (Homo sapiens); set-up: expressed in transfected cells; host or cells: Flp-In-293 (Invitrogen #R750-07), pcDNA5/FRT; conditions: hCB2R
Mark each entry condition met if its LogR GTPγS sits below 7, and condition not met for all others.

LogR GTPγS strictly < 7 for this compound? CN1CCCC[C@@H]1Cn1cc(C(=O)c2cc([N+](=O)[O-])ccc2I)c2ccccc21 [(R)-AM1241]
condition not met

LogR GTPγS strictly < 7 for this compound? CN1CCCCC1Cn1cc(C(=O)c2cc([N+](=O)[O-])ccc2I)c2ccccc21 (racemic) [(rac)-AM1241]
condition met

LogR GTPγS strictly < 7 for this compound? CCCCC/C=C\C/C=C\C/C=C\C/C=C\CCCC(=O)NCCO [Anandamide, N-arachidonoylethanolamine]
condition met

LogR GTPγS strictly < 7 for this compound? CCCCC/C=C\C/C=C\C/C=C\C/C=C\CCCC(=O)OC(CO)CO [2-AG, 2-arachidonoyl glycerol]
condition met

====

molecular target: UniProt P34972; assay: cell-based; assay type: cell-based; parameters: expressed in transfected cells; host or cells: Flp-In-293 (Invitrogen #R750-07), pcDNA5/FRT; settings: normalized to CP55940
measuredQuantity: Emax ± SEM GIRK hCB2R (%)
# value in %; strip the unit string

Look up UniProt P34972 data: Emax ± SEM GIRK hCB2R of CCCCCCC(C)(C)c1cc(OC)c(C2=C[C@H]3CC[C@]2(CO)C3(C)C)c(OC)c1 [HU910] , then report it.
74

Look up UniProt P34972 data: Emax ± SEM GIRK hCB2R of CN1CCCC[C@@H]1Cn1cc(C(=O)c2cc([N+](=O)[O-])ccc2I)c2ccccc21 [(R)-AM1241] , then report it.
47

Look up UniProt P34972 data: Emax ± SEM GIRK hCB2R of CN1CCCCC1Cn1cc(C(=O)c2cc([N+](=O)[O-])ccc2I)c2ccccc21 (racemic) [(rac)-AM1241] , then report it.
59

Look up UniProt P34972 data: Emax ± SEM GIRK hCB2R of CN1CCCC[C@H]1Cn1cc(C(=O)c2cc([N+](=O)[O-])ccc2I)c2ccccc21 [(S)-AM1241] , then report it.
68
